assayedSystem: PDE-5 (UniProt O76074)
assayOverview: In vitro PDE inhibitory activity against PDE5 (batch method or scintillation proximity assay)
Type: biochemical, human
testContext: representative compounds, read-out: IC50
Excerpt: The compounds of the invention are inhibitors of cyclic guanylate monophosphate (cGMP)-specific phosphodiesterase type 5 (PDE-5 inhibitors). […]
readoutLabel: IC50 (nM)
Give bare numbers, in nM.

CCOCCn1nc(C(=O)OC)c2nc(N3CCN[C@H](C)C3)nc(Nc3cc(C)ccn3)c21 [Example 3]
5.01
CCN(C)c1nc(Nc2cc(C)ccn2)c2c(n1)c(C(=O)NS(C)(=O)=O)nn2CCOC [Example 162]
3.1

Here are 3 compounds. What values of IC50 were reported for them?
1. CCN(C)c1nc(Nc2cc(C)ccn2)c2c(n1)c(C(=O)O)nn2CCOC(C)C [Example 62]
2. CCOCCn1nc(C(=O)O)c2nc(N(C)C(C)C)nc(Nc3ccc(F)cn3)c21 [Example 81]
3. CCOCCn1nc(C(=O)O)c2nc(N(C)C)nc(Nc3cc(C)c(C)cn3)c21 [Example 41]

1.85
16.7
3.2

----------
assayedSystem: UniProt O76074
assayOverview: In vitro PDE inhibitory activity against PDE5 (batch method or scintillation proximity assay)
Type: biochemical, human
testContext: representative compounds
Hi there, I'd appreciate the recorded IC50 for every entry that follows.
Please don't drop the unit; write it after the number.

Reference set (4 entries):
Cc1ccnc(Nc2nc(N(C)C)nc3c(C(=O)O)nn(CC4CCOCC4)c23)c1
100 nM
CCOCCn1nc(C(=O)O)c2nc(N(CC)CC)nc(N[C@@H]3CCOC3)c21
100 nM
Cc1ccnc(Nc2nc(N(C)C)nc3c(C(=O)O)nn(CC4CCCCO4)c23)c1 (centres unmarked)
43.6 nM
CCOCCn1nc(C(=O)O)c2nc(N(C)C(C)C)nc(NC3CC3)c21
100 nM

Proceed to the following item.
Reported IC50 for `CCN(C)c1nc(Nc2cc(C)ccn2)c2c(n1)c(C(=O)O)nn2CC1CCOCC1` : what is it? 100 nM

----------
assayedSystem: PDE-5 (UniProt O76074)
assayOverview: In vitro PDE inhibitory activity against PDE5 (batch method or scintillation proximity assay)
Assay type: biochemical, human
testContext: representative compounds
readoutLabel: pIC50
Answers are plain numbers, as −log10 of the molar value.

CCCN(C)c1nc(NC2CCCCC2)c2c(n1)c(C(=O)O)nn2CCOCC
7.45
CCOCCn1nc(C(=O)O)c2nc(N(C)C)nc(NC3CC3)c21
7.00
CCN(C)c1nc(Nc2cc(C)ccn2)c2c(n1)c(C(=O)O)nn2CC1CCCCO1 (stereo not drawn)
8.10
CCOCCn1nc(C(=O)O)c2nc(N(C)C3CCC3)nc(N[C@@H]3CCOC3)c21
7.00
CCOCCn1nc(C(=O)O)c2nc(N(C)C)nc(NC3CCC3)c21
7.00
CCOCCn1nc(C(=O)O)c2nc(N(C)C(C)C)nc(NC3CCC3)c21
7.00
COC(C)CCn1nc(C(=O)O)c2nc(N(C)C(C)C)nc(Nc3cc(C)ccn3)c21 (stereo not drawn)
9.51
CCOCCn1nc(C(=O)O)c2nc(N(C)C(C)C)nc(NC3CCCC3)c21
7.36

Proceed to the following item.
Reported pIC50 for `CCOCCn1nc(C(=O)O)c2nc(N(C)C(C)C)nc(N[C@@H]3CCOC3)c21` : what is it? 7.00
